What IC50 was measured for each of the following?
System: Amaranthus hypochondriacus
assay remarks: Phytogrowth-inhibitory activity against Amaranthus hypochondriacus assessed as inhibition of seedling germination
Type: functional, organism-based
Answers are plain numbers, in µM.

Some entries whose results are on file:
INSERT INTO assay_data (compound, result) VALUES
  ('COC(=O)c1c(C)cc(O)c(C)c1O', 760),
  ('Cc1cc(OC(=O)c2c(C)cc(OC(=O)c3c(C)cc(O)cc3O)cc2O)cc(O)c1C(=O)O', 2000),
  ('O=C(O)COc1ccc(Cl)cc1Cl', 880),
  ('COC(=O)c1c(C)cc(O)cc1O [METHYL ORSELLINATE]', 360);

Please state IC50 for every compound in the list that follows.
1. Cc1cc(O)cc(O)c1
2. Cc1cc(O)cc(OC(=O)c2c(C)cc(O)cc2O)c1

Response:
1: 1700; 2: 760
